This listing pairs molecules with measured ka.
- PROCEDURE_DETAILS: BIAcore binding of proteins to heparin immobilised on a biosensor chip
- CONDITION_SET: IL-4 WT and mutants binding to heparin; in M-1s-1 (unit assumed)
Kindly provide the number alone.

# MOLECULE, RESULT_TYPE, MEASURED
rows = [
    ("K77A/R81A: IL-4 double mutant (protein) HKCDITLQEIIKTLNSLTEQKTLCTELTVTDIFAASKNTTEKETFCRAATVLRQFYSHHEKDTRCLGATAQQFHRHAQLIAFLKRLDRNLWGLAGLNSCPVKEANQSTLENFLERLKTIMREKYSKCSS", "ka", "9.82E+03"),
]

Task: For the molecule shown here, K84A: IL-4 mutant, baculovirus expressed (protein) HKCDITLQEIIKTLNSLTEQKTLCTELTVTDIFAASKNTTEKETFCRAATVLRQFYSHHEKDTRCLGATAQQFHRHKQLIRFLARLDRNLWGLAGLNSCPVKEANQSTLENFLERLKTIMREKYSKCSS , give the reported ka.
Result: 3.06E+04

Task: For the molecule shown here, E9A: IL-4 mutant, baculovirus expressed (protein) HKCDITLQAIIKTLNSLTEQKTLCTELTVTDIFAASKNTTEKETFCRAATVLRQFYSHHEKDTRCLGATAQQFHRHKQLIRFLKRLDRNLWGLAGLNSCPVKEANQSTLENFLERLKTIMREKYSKCSS , give the reported ka.
Result: 1.72E+05

Taken from patent US8209131B2.
